tested on: UO-31 renal; assay: NCI-60 one-dose screen, 48 h; settings: 10 µM unless noted
Compounds without any hit were thinned out: in the full panel of roughly 83,000, 20% have a hit. Active and inactive are the calls of the source. The calls were made as follows: active = growth percent below 10; inactive = the rest.
Classes used: active, inactive

molecule	classification
CCNC(=O)Oc1ccc(/C(=C(/C)c2ccccc2)c2ccc(OCCN3CCCC3)cc2)cc1	inactive
Cc1cc(Cl)cc(NS(=O)(=O)c2ccc(-c3cnc(C4CC4)o3)cc2)c1	inactive
COc1ccc([C@H]2[C@H](O)C(=O)N2c2cc(OC)c(OC)c(OC)c2)cc1O	inactive
CC1(C)CC[C@]2(C(=O)O)CC[C@]3(C)C(=CCC4[C@@]5(C)C[C@@H](O)[C@@H]6OC(c7cccc([N+](=O)[O-])c7)OC[C@@]6(C)C5CC[C@]43C)C2C1 (some centres not stated)	inactive
C=C(C)C(=O)O[C@H]1C[C@@]2(C)OC(=CC2=O)/C(CO)=C\[C@H]2OC(=O)C(=C)[C@H]12	active
CCc1ccc(NC(=O)N[C@@H](Cc2cccc(C)c2)C(=O)N[C@@H]2C(=O)N3CCC[C@H]3C(=O)N3CCCC[C@H]3C(=O)N[C@@H](CO)C(=O)N3C[C@H](C)C[C@H]3C(=O)O[C@H]2C)c(F)c1	inactive
COc1ccc(/C=N/Nc2nc(N/N=C/c3ccc(OC)cc3O)nc(N3CCOCC3)n2)c(O)c1	inactive
CCCCSc1nnc(-c2ccc(-c3ccc(Cl)cc3)nc2C)o1	inactive
CNC(=O)c1cc(N2CCc3cc(NC(=O)Nc4ccc(Cl)c(Cl)c4)ccc32)ccn1	inactive
C#C[C@]1(O)CC[C@H]2[C@@H]3CC=C4c5sc(Nc6nc(C)cc(OC)n6)nc5CC[C@]4(C)[C@H]3CC[C@@]21C	active
O=C1/C(=C/c2ccc([N+](=O)[O-])cc2)SC(=Nc2ccccc2)N1Nc1ccccc1	inactive
COc1cc(/C=N/n2cnc3oc(-c4ccccc4)cc3c2=N)cc(CN2CCCCC2)c1O	active
IP(CCCSc1n(Cc2ccc3ccccc3c2)c(-c2ccccc2)c(-c2ccccc2)[n+]1Cc1ccc2ccccc2c1)(c1ccccc1)(c1ccccc1)c1ccccc1	inactive
COc1cc(-c2nc(SCc3ccc(C)cc3)[nH]c(=O)c2C#N)ccc1OCc1ccccc1	inactive
CCOc1c(C#N)c(Nc2ccc(S(N)(=O)=O)cc2)c(C#N)c2nnc(C)n12	inactive
Oc1ccc(CSc2nnc(-c3ccccc3)n2-c2ccccc2)c2cccnc12	active
CN(C)c1ncc(/C=C2\SC(=S)N(Cc3ccccc3Cl)C2=O)s1	inactive

* * *

test system: MCF7 breast; assay: NCI-60 one-dose screen, 48 h (100 = growth as untreated, 0 = no growth, -100 = all killed); details: 10 µM unless noted
Compounds without any hit were thinned out: in the full panel of roughly 83,000, 20% have a hit.
quantity-name: growth (%)

molecule	test-system	experimental-value
CC(C)C[C@H]1C(=O)O[C@H](C(C)C)C(=O)N(C)[C@@H](C(C)C)C(=O)O[C@H](C(C)C)C(=O)N(C)[C@@H](C(C)C)C(=O)O[C@H](C(C)C)C(=O)N1C	MCF7 breast	13.8
O=C(N/N=C\c1ccc(Cl)cc1)c1ccc2nc(-c3ccc(Br)cc3)[nH]c2c1	MCF7 breast	-33.2
COc1ccc(-c2cc(-c3cccc4ccccc34)n3c(n2)nc2ccccc23)cc1	MCF7 breast	19.6
O=C(Nc1ccc(-c2nc(-c3cccc(O)c3)c(-c3ccnc(Br)c3)[nH]2)cc1)c1ccccc1	MCF7 breast	0.42
CCOC(=O)c1c(NCC(=O)Nc2ccc(Br)cc2)sc2c1CCCC2	MCF7 breast	11.9
Oc1ccc(-c2nnc(SCc3ccc(O)c4ncccc34)o2)cc1	MCF7 breast	2.57
C=CCn1c(SCC(=O)Nc2cccc(C(=O)/C=C/c3ccc(OC)c(OC)c3)c2)nc2ccccc2c1=O	MCF7 breast	45.4
COc1ccc([C@@H]2[C@@H](O)C(=O)N2c2cc(OC)c(OC)c(OC)c2)cc1	MCF7 breast	11.9
CCOC(=O)c1ccc(N/C=C/C(=O)c2ccccc2)cc1	MCF7 breast	88.2
C=C1C(=O)O[C@@H]2C[C@@H](C)/C=C\C(=O)[C@](C)(OC(C)=O)C[C@H](OC(=O)/C(C)=C\C)[C@@H]12	MCF7 breast	11.2
C=C1C(=O)O[C@@H]2/C=C(/C)C3=CC(=O)[C@@](C)(C[C@H](OC(=O)/C(C)=C\C)[C@@H]12)O3	MCF7 breast	13.2
C#CCOc1ccccc1C(Nc1ccccc1)c1nnnn1C1CCCCC1 (stereo not drawn)	MCF7 breast	94.3
O=C(CCCCCCN1CC(=O)N2[C@@H](c3ccccc3)c3[nH]c4ccccc4c3C[C@H]2C1=O)NO	MCF7 breast	47.1
CCN1C(=O)N(CC)C2SC(N/N=C/c3ccccc3F)=NC21 (stereo not drawn)	MCF7 breast	16.2
COc1cc2c3c(n(CCCNCC4CC4)c(=O)c2cc1OC)-c1cc2c(cc1C3=O)OCO2	MCF7 breast	-77.4
CN1C(=O)/C(=C/C=C/c2ccco2)SC1=S	MCF7 breast	24.2
Cc1ccc(NC(=O)N[C@@H](Cc2cc(F)cc(F)c2)C(=O)NC2C(=O)N3CCC[C@H]3C(=O)N3CCCC[C@H]3C(=O)N[C@@H](C)C(=O)N3C[C@H](C)C[C@H]3C(=O)O[C@H]2C)c(F)c1 (stereo partly drawn)	MCF7 breast	15.5
CC(C)Sc1nc(NC2CC2)c(C#N)c(-c2ccccc2)n1	MCF7 breast	73.7
